- System: HT-29
- assay notes: Compound was tested for cytotoxicity on HT-29 colon cancer cell line using a proliferation assay (MTT reduction)
- Format: functional, cell-based
- test conditions: Homo sapiens
Some molecules, each annotated with its measured IC50.
Kindly provide the numeric value in µM only, without the unit symbol.

molecule: O=C1C2C=CC(C3C2C2C/C(=N\Cc4ccccc4)[C@]3(O)CN2Cc2ccccc2)[C@@]12CO2 (some centres not stated)
target or system: HT-29
IC50, µM: 27
--
molecule: O=C1C2C=CC(C3C2C=CC(=O)[C@]32CO2)[C@@]12CO2 (some centres not stated)
target or system: HT-29
IC50, µM: 0.3
--
molecule: COC1=CC2C(C3C=CC2(OC)C(=O)[C@]32CO2)[C@@]2(CO2)C1=O (some centres not stated)
target or system: HT-29
IC50, µM: 3.6
--
molecule: O[C@@H]1C=CC2C3C=CC(C2[C@@]12CO2)[C@@]1(CO1)[C@@H]3O (some centres not stated)
target or system: HT-29
IC50, µM: 17
--
molecule: O[C@@H]1CCC2C3C=CC(C2[C@@]12CO2)[C@@]1(CO1)[C@@H]3O (some centres not stated)
target or system: HT-29
IC50, µM: 6
--
molecule: COC1=CC2C3C=CC(C2[C@@]2(CO2)C1=O)[C@@]1(CO1)C3=O (some centres not stated)
target or system: HT-29
IC50, µM: 5.8

Next item in the queue.
Problem: Give IC50 for COc1cccc2c1C(=O)c1c(O)c3c(c(O)c1C2=O)C[C@@](O)(C(=O)CO)C[C@@H]3O[C@H]1C[C@H](N)[C@H](O)[C@H](C)O1
Solution: 0.12
